testDetails: Primary qHTS for inhibitors of nuclear receptor binding SET domain protein 2 (NSD2) in an RCH-ACV wild type WT cells (2C) (AID 1645877); also: nearly all actives have a fitted effect of over 70% in size; as to activity change, negative = cell killing: % is scaled to controls: 0 for no effect and ±100 for the full control effect
measurementSetup: RCH-ACV (leukaemia line) NSD2 WT (2C) viability, CellTiter-Glo, 72 h; series mostly up to 44.9 µM
Results filed as inconclusive are left out. Calls of active or inactive are those of the source. Calls follow the shape of the dose curve; as a rule, active = well fitted inhibition curve with a large enough effect; inconclusive = small, poorly fitted or top-dose-only effect; inactive = no such curve, though single readings can be large or run the other way. Where a SMILES comes first, the peptide text is derived from it. The star is where a group is joined. Cbz = O=C(OCc1ccccc1)*; CH2F = FC*
quantityKind: activity change, negative = cell killing

For reference, reported activity change, negative = cell killing for CSC(=O)OCC1=C[C@@H]2OC(=O)C3=CO[C@@H](O[C@@H]4O[C@H](CO)[C@@H](O)[C@H](O)[C@H]4O)[C@H]1[C@@H]32 stands at inactive

Reported activity change, negative = cell killing of O=C(CCc1ccccc1)c1c(O)c([C@@H]2O[C@H](CO)[C@@H](O)[C@H](O)[C@H]2O)c(O)c([C@@H]2O[C@H](CO)[C@@H](O)[C@H](O)[C@H]2O)c1O : inactive

Form: molecule = NC(=O)[C@H](Cc1ccccc1)NC(=O)[C@H](CCCN=C(N)N)NC(=O)C12CC3CC(CC(C3)C1)C2 ; activity change, negative = cell killing = 0.0232% [at 9.23 µM] (inactive)

Lab note: measured activity change, negative = cell killing of COC(=O)CC[C@H](NC(=O)[C@H](CC(C)C)NC(=O)OCc1ccccc1)C(=O)N[C@@H](Cc1cnc[nH]1)C(=O)N[C@@H](CC(=O)OC)C(=O)CF (Cbz-LE(OMe)HD(OMe)-CH2F) was -7.81% [at 9.23 µM] (inactive)

Memo: CC(C)CC(=O)NCCn1cc(C(=O)O)c(=O)cc1C(O)c1ccccc1 (configuration not stated) , reported activity change, negative = cell killing: inactive

The reported activity change, negative = cell killing of the molecule Cc1oc(S(=O)(=O)N2CCCCC2)cc1NC(=O)Nc1ccccc1 was inactive

Further cases:
In plain terms, CC1(C)CC[C@]2(C(=O)O)CC[C@]3(C)C(=CCC4[C@@]5(C)CC[C@H](O[C@@H]6O[C@H](C(=O)O)[C@@H](O)[C@H](O)[C@H]6O)C(C)(C)C5CC[C@]43C)C2C1 (some centres not stated) has a documented activity change, negative = cell killing of inactive

====

testDetails: Primary fluorescence-based thiol-reactive (MSTI) qHTS assay for identification of artifact compounds. (AID 1845221); also: nearly all actives have a fitted effect of over 65% in size
measurementSetup: MSTI thiol-reactivity probe, 1 h; series mostly up to 53.8 µM
Records with an inconclusive call do not appear. The source made the active and inactive calls. Calls come from the whole dose curve; as a rule, active = well fitted inhibition curve with a large enough effect; inconclusive = small, poorly fitted or top-dose-only effect; inactive = no such curve, though single readings can be large or run the other way. Where a SMILES comes first, the peptide text is derived from it. [ ]: non-standard residue; d: D form. ξ: configuration not given here. ξTyr(βOH) = NC(C(=O)O)C(O)c1ccc(O)cc1
Output constraint: value belongs to y (active), n (inactive)

Reference set (6 entries):
Give the logged outcome of this assay for the following compound: CC(C)C1NC(=O)CNC(=O)C2CCCN2C(=O)C(Cc2c[nH]c3ccccc23)NC(=O)CNC(=O)C(C(O)c2ccc(O)cc2)NC(=O)CNC1=O (stereo not drawn) (cyclo(G[ξTyr(βOH)]GWPGV); configuration not given here)
n

Which outcome was entered for the compound C/C(=C\CC[C@H](CO)[C@@H]1CC[C@]2(C)C3=C(CC[C@@]12C)[C@@]1(C)CCC(=O)C(C)(C)C1CC3)C(=O)O (stereo partly drawn) in this test?
n

Each compound tested received a call. Report the one for C=C1CC/C=C(/C(=O)O)CCC2C1CC2(C)C (stereo not drawn) .
n

Status in this test for C=C1CCC[C@]2(C)CC[C@@](O)(C(=C)C(=O)O)C[C@@H]12 ?
n

Would you mind telling me which call this test gave O=C(/C=C/c1ccc(O)cc1)OC[C@@]1(O)C=C[C@@H]2C(C(=O)O)=CO[C@@H](O[C@@H]3O[C@H](CO)[C@@H](O)[C@H](O)[C@H]3O)[C@@H]21 ?
y

In this assay, the call recorded for CC(C)C1(O)C=C2C(=O)CC3C(C)(C(=O)O)CCCC3(C)C2CC1 (stereo not drawn) was what?
n

---
Just curious, what result did CN1CCN(C(=O)c2cc3cc(Cl)ccc3[nH]2)CC1 get here?
n

Give the logged outcome of this assay for the following compound: COc1ccc(S(=O)(=O)Nc2nc(-c3cccc([N+](=O)[O-])c3)cs2)cc1OC
y
